biological target: Acetylcholinesterase (Electrophorus electricus)
Sequence (O42275 whole entry): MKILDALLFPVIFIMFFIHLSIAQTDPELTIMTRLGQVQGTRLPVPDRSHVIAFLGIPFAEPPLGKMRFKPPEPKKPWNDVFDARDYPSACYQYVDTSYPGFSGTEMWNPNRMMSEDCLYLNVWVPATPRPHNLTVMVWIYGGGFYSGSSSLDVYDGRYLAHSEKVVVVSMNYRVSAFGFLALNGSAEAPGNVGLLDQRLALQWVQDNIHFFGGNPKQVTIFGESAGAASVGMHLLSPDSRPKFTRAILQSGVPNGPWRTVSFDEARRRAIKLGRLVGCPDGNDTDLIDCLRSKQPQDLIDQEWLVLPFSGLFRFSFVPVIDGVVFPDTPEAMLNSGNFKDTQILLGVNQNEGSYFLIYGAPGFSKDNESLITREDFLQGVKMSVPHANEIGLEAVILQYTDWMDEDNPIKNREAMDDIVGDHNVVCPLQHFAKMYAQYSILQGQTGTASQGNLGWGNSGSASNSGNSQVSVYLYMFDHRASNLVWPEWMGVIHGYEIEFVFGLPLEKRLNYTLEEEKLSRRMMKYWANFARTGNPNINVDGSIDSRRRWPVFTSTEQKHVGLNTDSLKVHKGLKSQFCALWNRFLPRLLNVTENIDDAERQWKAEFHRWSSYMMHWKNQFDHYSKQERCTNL
pIC50: −log10 of the molar value.
Assign Criterion met whenever pIC50 does not fall below 5; assign Criterion not met whenever it does.

Please review the entries below; each comes with its answer.
1. CCOP(=O)(OCC)C(OC(=O)NCc1ccccc1)c1cccc2ccccc12 (stereo not drawn) [α-Oxycarbanilinophosphonate, 4l]
Criterion not met
2. CCOP(=O)(OCC)C(OC(=O)Nc1ccc(C)c(Cl)c1)c1ccc(Cl)cc1Cl (stereo not given)
Criterion met

In the following, a different compound is considered.
## Task In plain terms: is recorded pIC50 at least 5 for CCOP(=O)(OCC)C(OC(=O)Nc1ccccc1)c1ccc(SC)cc1 (stereo not drawn) [α-Oxycarbanilinophosphonate, 4d] ?
## Result Criterion not met
